Below, each of the compounds is paired with its reported TGI value.
test system: PC-3 prostate; assay: NCI tumour cell line growth inhibition, 48 h

In the examples that follow, each entry is paired with its recorded TGI.
- compound: "Nc1nc2ncc(CNc3ccc(C(=O)NC(CCC(=O)O)C(=O)O)cc3)nc2c(=O)[nH]1 (stereo not drawn)"
  recorded_measurement: "> 100 µM"
- compound: "O=C(Cc1ccc(F)c(F)c1)Nc1cc(C2(C(F)(F)F)CC2)nn1Cc1ccccc1"
  recorded_measurement: "> 15 µM"

The reported TGI of the compound COc1cc(NCCC2CCCCN2)c2ncccc2c1 (stereo not drawn) was > 100 µM

Documented TGI of COc1cc(-c2cc(=O)c3c(O)c(CC=C(C)C)c(O)cc3o2)ccc1O : > 50 µM

The compound identified as O=C(c1ccccc1)C1OC1c1ccc([N+](=O)[O-])cc1 (stereo not drawn) registered its TGI at > 100 µM
